target: Inadl_8, Q8NI35; test: holdup assay; design: key: below the threshold = too weak to quantify, mostly under pKd 3.1 to 4; conditions: plain residues with an end cap or a label only (N-terminal biotin on a linker: ado-ado)
Sequence (Q8NI35 1425-1530): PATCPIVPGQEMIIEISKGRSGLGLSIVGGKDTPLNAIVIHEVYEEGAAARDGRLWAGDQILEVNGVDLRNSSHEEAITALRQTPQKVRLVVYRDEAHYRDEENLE
Cut-off 4 on pKd, inclusive. At or above means y; below means n.

Hello, I need to know if PSHPRLQTHV [KIRREL2, Q6UWL6] has measured pKd not below 4. Thanks!
n

Does RFQQRMQTHV [KIRREL1, Q96J84] have a reported pKd of at least 4?
n

Measured values drawn from paper PMC9482650 for this set.
